Measured T/C, listed per entry.
System: P388 leukemia ip, CD2F1 mice, survival T/C
Assay: NCI In Vivo Anticancer Drug Screen. Data for tumor model P388 Leukemia (intraperitoneal) in CD2F1 (CDF1) mice
Details: endpoint: median survival time; dose: 100.0 mg/kg/injection; schedule: Q04DX003 (ip); vehicle: Klucel (hydroxypropylcellulose) (HPC); higher = longer survival
Experimental: The antitumor activity of compounds was measured in mice bearing transplantable tumors. Survival or tumor size were measured and the results are expressed as the measurement made in the treated group (T) divided by the measurement made in the vehicle treated control group (C). The tumor model used in this assay is P388 Leukemia (intraperitoneal) in CD2F1 (CDF1) mice
Toxic doses and inconclusive results are not listed.

The examples below pair each entry with its known result.
- Compound: "ClC(c1ccccc1)C1(Cl)C=c2ccccc2=C1 (stereo unspecified)"
  T/C: "100 % of control"
- Compound: "Cc1ccc(S(=O)(=O)N2C(=O)CCC2=O)cc1"
  T/C: "106 % of control"
- Compound: "CCCCCCCn1cnc2cc(N3CCOCC3)c([N+](=O)[O-])cc2c1=O"
  T/C: "102 % of control"

Short answer for "CS/C(=C1/C(=O)N(c2ccccc2)N=C1c1ccc(Cl)cc1)N1CC1" : T/C was 99 % of control

Short answer for "O=c1oc2c(c(N(c3ccccc3)c3ccccc3)c1Cl)Cc1ccccc1CC2" : T/C was 92 % of control

---

Measured T/C, listed per entry.
tested on: P388 leukemia ip, CD2F1 mice, survival T/C; assay: NCI In Vivo Anticancer Drug Screen. Data for tumor model P388 Leukemia (intraperitoneal) in CD2F1 (CDF1) mice; conditions: endpoint: median survival time; dose: 50.0 mg/kg/injection; schedule: Q01DX005 (ip); vehicle: Klucel (hydroxypropylcellulose) (HPC); higher = longer survival
Toxic doses and inconclusive results are not listed. Square brackets hold non-standard residues; d marks the D form. Peptide text beside a SMILES is read from it. * marks the point of attachment. ξ: configuration not given here. Cbz = O=C(OCc1ccccc1)*; OBn = c1ccc(CO*)cc1; ξS = NC(CO)C(=O)O

- Compound: "CC1C=CCC2C(=O)c3cccc([N+](=O)[O-])c3C(=O)C12 (stereo not given)"
  Parameter Measured: "T/C"
  Obs Value: "100 % of control"
- Compound: "O=C(CNC(=O)C(CO)NC(=O)OCc1ccccc1)NCC(=O)OCc1ccccc1 (stereo not drawn) (Cbz-[ξS]-Gly-Gly-OBn)"
  Parameter Measured: "T/C"
  Obs Value: "101 % of control"
- Compound: "Fc1c(F)c(C(F)(F)F)c(F)c(F)c1-n1nnc(-c2ccccc2)n1"
  Parameter Measured: "T/C"
  Obs Value: "99 % of control"
- Compound: "O=S(=O)(C1=NOC(c2ccccc2)C1)c1ccccc1 (stereo not given)"
  Parameter Measured: "T/C"
  Obs Value: "99 % of control"
- Compound: "CCN(CC)CCOC(=O)C(OCCC(C)C)(c1ccccc1)c1ccccc1"
  Parameter Measured: "T/C"
  Obs Value: "113 % of control"

Short answer for "Clc1ncnc2c1ncn2C1C=CC=CC=C1" : T/C was 90 % of control

Short answer for O=C1c2ccccc2C2(O)C3C=CCCN3CN12 (stereo not given) : T/C was 101 % of control

Short answer for CC1(C)N(/N=C/c2ccccc2)C(c2ccccc2)C(c2ccccc2)N1/N=C/c1ccccc1 (stereo not given) : T/C was 86 % of control

Short answer for CN1C2CCC1C(O)C(c1ccc(Cl)cc1)C2 (stereo not given) : T/C was 100 % of control

Short answer for Cc1ccc2c(c1)C(C)(C)C(O)CC2(C)C (stereo not given) : T/C was 98 % of control

Short answer for COC1=C2CCC3c4cc(OC)c(OC)cc4CC[N+]3=C2CC1 (stereo not given) : T/C was 99 % of control

Short answer for CC[C@@]1(C(N)=O)CC2C=CC1C2 (stereo not given in full) : T/C was 94 % of control

Short answer for "N=C(N)c1ccc(N=Nc2c(O)c(C(=O)Nc3ccccc3)cc3ccccc23)cc1" : T/C was 100 % of control

Short answer for "Nc1ccnc(Sc2ncccc2[N+](=O)[O-])n1" : T/C was 100 % of control

Short answer for "c1ccc(CCn2c(-c3ccccn3)nc3ccccc32)nc1" : T/C was 99 % of control

---

tested on: P388 leukemia ip, CD2F1 mice, survival T/C; assay: NCI In Vivo Anticancer Drug Screen. Data for tumor model P388 Leukemia (intraperitoneal) in CD2F1 (CDF1) mice; conditions: endpoint: median survival time; dose: 100.0 mg/kg/injection; schedule: Q01DX009 (ip); vehicle: saline with Tween-80; higher = longer survival
Inconclusive results and toxic doses are left out.
Measured T/C, listed per entry.

Short answer for "C=C(C)CCOS(=O)(=O)c1ccc(C)cc1" : T/C was 110 % of control

Short answer for CCOC(=O)C(C#N)(CCC(=NC(C)(C)C)Nc1c(Cl)cccc1Cl)CCC(=NC(C)(C)C)Nc1c(Cl)cccc1Cl (centres undefined) : T/C was 101 % of control

Short answer for CNC(=O)NC1NC(=O)N(C)C1=O (centres undefined) : T/C was 99 % of control

Short answer for "COc1ccc(/C=N/N(C)C(=O)Nc2cccc(Cl)c2)cc1OC" : T/C was 98 % of control

Short answer for "Clc1ccc(N=C(c2ccncc2)c2cc(Cl)ccc2Cl)cc1" : T/C was 92 % of control

Short answer for N#CC12OC1(Cl)CCCC2(Cl)Cl (centres undefined) : T/C was 95 % of control

Short answer for "O=C(N/N=C(/C(=N/NC(=O)c1ccccc1)c1ccccc1)c1ccccc1)c1ccccc1" : T/C was 100 % of control

Short answer for "CSCc1cccc(Cl)c1N" : T/C was 106 % of control

---

Measured T/C, listed per entry.
tested on: P388 leukemia ip, CD2F1 mice, survival T/C; test: NCI In Vivo Anticancer Drug Screen. Data for tumor model P388 Leukemia (intraperitoneal) in CD2F1 (CDF1) mice; conditions: endpoint: median survival time; dose: 60.0 mg/kg/injection; schedule: Q01DX005 (ip); vehicle: saline with Tween-80; higher = longer survival
Toxic doses and inconclusive results are not listed.

The examples below pair each entry with its known result.
- Molecule: "Cn1ccnc1[Si](C)(C)C"
  T/C: "101 % of control"
- Molecule: "C=CCN(CC=C)C(=O)Nc1cccc2c(NC(=O)N(CC=C)CC=C)cccc12"
  T/C: "93 % of control"
- Molecule: "CN1C(=O)n2c(nc3ccccc32)C(Cl)(Cl)C1=O"
  T/C: "104 % of control"

Short answer for COc1cc([C@H]2c3c(cc(OC)c(OC)c3OC)CC3COC(=O)[C@@H]32)cc(Br)c1O (stereo partly specified) : T/C was 101 % of control

Short answer for CCCCSc1n[nH]c(C2CCC(=O)N2Cc2ccccc2)n1 (stereo unspecified) : T/C was 100 % of control

Short answer for "CN1c2ccc(Br)c[c]2[Sn]([CH3])([CH3])[c]2cc(Br)ccc21" : T/C was 99 % of control

Short answer for "O=c1nnc(O)c2n(O)cccc1-2" : T/C was 100 % of control

Short answer for "Cc1ccc2nc3ccccc3c(SCCCCCCSc3c4ccccc4nc4ccc(C)cc34)c2c1" : T/C was 107 % of control

Short answer for COc1ccc(C(c2cc3c(cc2O)OCO3)N2CCOCC2)cc1OC (stereo unspecified) : T/C was 101 % of control

Short answer for "Cc1cc(CSCCc2nc3ccccc3[nH]2)c(O)c(CSCCc2nc3ccccc3[nH]2)c1" : T/C was 107 % of control

Short answer for "Nc1ccc(-c2ccc(C(=O)O)cc2)cc1" : T/C was 104 % of control

---

Measured T/C, listed per entry.
system: P388 leukemia ip, CD2F1 mice, survival T/C; test: NCI In Vivo Anticancer Drug Screen. Data for tumor model P388 Leukemia (intraperitoneal) in CD2F1 (CDF1) mice; conditions: endpoint: median survival time; dose: 25.0 mg/kg/injection; schedule: Q01DX009 (ip); vehicle: saline with Tween-80; higher = longer survival
Inconclusive results and toxic doses are left out.

The examples below pair each entry with its known result.
- Molecule: "COC1C(OC(=O)c2ccc(C)[nH]2)C(O)C(Oc2ccc3c(O)c(NC(=O)c4c[nH]c(C(=O)Nc5c(O)c6ccc(OC7OC(C)(C)C(OC)C(OC(=O)c8ccc(C)[nH]8)C7O)c(C)c6oc5=O)c4C)c(=O)oc3c2C)OC1(C)C (stereo not drawn)"
  Subject Of Test: "P388 leukemia ip, CD2F1 mice, survival T/C"
  T/C: "96 % of control"
- Molecule: "COc1cc(NC(C)CCCN)c2ncccc2c1Oc1ccc(Cl)cc1 (stereo not drawn)"
  Subject Of Test: "P388 leukemia ip, CD2F1 mice, survival T/C"
  T/C: "90 % of control"
- Molecule: "C[N+](C)(C)CCC(=O)c1ccco1"
  Subject Of Test: "P388 leukemia ip, CD2F1 mice, survival T/C"
  T/C: "111 % of control"
- Molecule: "COc1cc(O)c2c(O)c3c(=O)cc(C)oc3cc2c1"
  Subject Of Test: "P388 leukemia ip, CD2F1 mice, survival T/C"
  T/C: "102 % of control"

Simply: "Cc1ccc(/C=N/NC(N)=S)s1" , P388 leukemia ip, CD2F1 mice, survival T/C, T/C = 108 % of control

Source of measurements: PubChem BioAssay AID330
